# target desc: DNA polymerase mu (Polµ) (Homo sapiens, UniProt Q9NP87 1-494)
# Sequence (Q9NP87 whole entry): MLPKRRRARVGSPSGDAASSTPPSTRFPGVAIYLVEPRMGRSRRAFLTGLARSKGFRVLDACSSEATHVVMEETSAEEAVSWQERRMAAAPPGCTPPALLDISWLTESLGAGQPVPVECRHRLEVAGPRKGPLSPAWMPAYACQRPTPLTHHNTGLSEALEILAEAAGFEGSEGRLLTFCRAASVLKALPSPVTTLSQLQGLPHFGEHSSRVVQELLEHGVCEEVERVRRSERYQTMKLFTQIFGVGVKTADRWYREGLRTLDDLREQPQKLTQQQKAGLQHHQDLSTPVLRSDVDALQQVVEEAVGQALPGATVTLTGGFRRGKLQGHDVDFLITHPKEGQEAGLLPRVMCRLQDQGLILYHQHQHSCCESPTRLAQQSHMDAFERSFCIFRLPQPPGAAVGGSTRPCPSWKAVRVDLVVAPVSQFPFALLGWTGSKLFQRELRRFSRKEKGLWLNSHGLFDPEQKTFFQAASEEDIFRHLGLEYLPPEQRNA
# assay: EMSA; EMSA: 50 mM Tris-HCl pH 7.5, 0.1 mg/ml BSA, 1 mM DTT, 4% glycerol, 5 nM DNA, 10 min at 30°C; footprinting: same buffer, 30 nM DNA, 37°C (2.5 mM MgCl2 and 100 µM dNTP where stated)
# test conditions: protein: recombinant; tags: pRSETA-hPolµ construct; label: 32P; 3' overhang 2 nt (text says 3 nt), other end blunt
reported property: Kd (nM)
Dear colleague, please return just the value in nM, with no unit written.

binder	Kd [nM]
3'-protruding end GT/NHEJ-D, 5'-P (dsDNA, 5'-phosphate on NHEJ-D (S15)) DNA 1: CCCTCCCTCCCGT DNA 2: GGGAGGGAGGG	165

[Q] # Kd lookup, item 3'-protruding end GT/NHEJ-D, 5'-OH (dsDNA) DNA 1: CCCTCCCTCCCGT DNA 2: GGGAGGGAGGG
[A] 400
